- system-under-test: AAK1 (Homo sapiens, UniProt Q2M2I8)
- Sequence (Q2M2I8 27-365 limits assumed): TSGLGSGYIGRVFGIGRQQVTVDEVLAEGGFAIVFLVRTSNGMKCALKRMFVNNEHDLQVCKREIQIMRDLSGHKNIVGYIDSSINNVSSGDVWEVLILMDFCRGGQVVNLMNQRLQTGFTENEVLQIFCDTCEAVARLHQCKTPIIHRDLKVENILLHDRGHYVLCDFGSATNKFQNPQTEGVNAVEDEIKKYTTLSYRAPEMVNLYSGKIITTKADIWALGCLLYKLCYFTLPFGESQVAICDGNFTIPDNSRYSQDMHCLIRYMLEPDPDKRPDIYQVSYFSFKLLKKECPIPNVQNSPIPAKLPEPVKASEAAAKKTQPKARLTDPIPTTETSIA
- test-description: biochemical
- Parameters: kinase domain; Thermal shift assay (DSF, SYPRO Orange), 2 uM kinase domain, mean delta Tm of triplicates versus DMSO
- condition-notes: read-out: AAK1
Each entry gets F if its ΔTm at 12.5 µM stays under 0.8 °C, and T if its ΔTm at 12.5 µM is 0.8 °C or above.

Use these answered entries as a reference point.
>  <molecule>
O=C(Nc1c[nH]nc1-c1nc2ccc(CN3CCOCC3)cc2[nH]1)NC1CC1 [AT9283]

>  <answer-label>
T

$$$$
>  <molecule>
CC(=O)c1c(C)c2cnc(Nc3ccc(N4CCNCC4)cn3)nc2n(C2CCCC2)c1=O [Palbociclib]

>  <answer-label>
T

$$$$
>  <molecule>
CN1CCN(CCOc2cc(OC3CCOCC3)c3c(Nc4c(Cl)ccc5c4OCO5)ncnc3c2)CC1 [Saracatinib]

>  <answer-label>
F

$$$$
>  <molecule>
Cc1cc2c(F)c(Oc3ncnn4cc(OC[C@@H](C)O)c(C)c34)ccc2[nH]1 [Brivanib]

>  <answer-label>
T

$$$$
>  <molecule>
COc1cc2ncnc(Nc3ccc(F)c(Cl)c3)c2cc1NC(=O)/C=C/CN1CCCCC1 [Dacomitinib]

>  <answer-label>
T

$$$$

Item C[C@]1(O)C[C@@H](c2nc(-c3ccc4ccc(-c5ccccc5)nc4c3)c3c(N)nccn32)C1 [Linsitinib] with ΔTm at 12.5 µM of 0.8 °C or above?
F

----------
- system-under-test: GAK (Homo sapiens)
- Construct: catalytic domain-containing construct
- Sequence (O14976 whole entry, the tested form may be a part): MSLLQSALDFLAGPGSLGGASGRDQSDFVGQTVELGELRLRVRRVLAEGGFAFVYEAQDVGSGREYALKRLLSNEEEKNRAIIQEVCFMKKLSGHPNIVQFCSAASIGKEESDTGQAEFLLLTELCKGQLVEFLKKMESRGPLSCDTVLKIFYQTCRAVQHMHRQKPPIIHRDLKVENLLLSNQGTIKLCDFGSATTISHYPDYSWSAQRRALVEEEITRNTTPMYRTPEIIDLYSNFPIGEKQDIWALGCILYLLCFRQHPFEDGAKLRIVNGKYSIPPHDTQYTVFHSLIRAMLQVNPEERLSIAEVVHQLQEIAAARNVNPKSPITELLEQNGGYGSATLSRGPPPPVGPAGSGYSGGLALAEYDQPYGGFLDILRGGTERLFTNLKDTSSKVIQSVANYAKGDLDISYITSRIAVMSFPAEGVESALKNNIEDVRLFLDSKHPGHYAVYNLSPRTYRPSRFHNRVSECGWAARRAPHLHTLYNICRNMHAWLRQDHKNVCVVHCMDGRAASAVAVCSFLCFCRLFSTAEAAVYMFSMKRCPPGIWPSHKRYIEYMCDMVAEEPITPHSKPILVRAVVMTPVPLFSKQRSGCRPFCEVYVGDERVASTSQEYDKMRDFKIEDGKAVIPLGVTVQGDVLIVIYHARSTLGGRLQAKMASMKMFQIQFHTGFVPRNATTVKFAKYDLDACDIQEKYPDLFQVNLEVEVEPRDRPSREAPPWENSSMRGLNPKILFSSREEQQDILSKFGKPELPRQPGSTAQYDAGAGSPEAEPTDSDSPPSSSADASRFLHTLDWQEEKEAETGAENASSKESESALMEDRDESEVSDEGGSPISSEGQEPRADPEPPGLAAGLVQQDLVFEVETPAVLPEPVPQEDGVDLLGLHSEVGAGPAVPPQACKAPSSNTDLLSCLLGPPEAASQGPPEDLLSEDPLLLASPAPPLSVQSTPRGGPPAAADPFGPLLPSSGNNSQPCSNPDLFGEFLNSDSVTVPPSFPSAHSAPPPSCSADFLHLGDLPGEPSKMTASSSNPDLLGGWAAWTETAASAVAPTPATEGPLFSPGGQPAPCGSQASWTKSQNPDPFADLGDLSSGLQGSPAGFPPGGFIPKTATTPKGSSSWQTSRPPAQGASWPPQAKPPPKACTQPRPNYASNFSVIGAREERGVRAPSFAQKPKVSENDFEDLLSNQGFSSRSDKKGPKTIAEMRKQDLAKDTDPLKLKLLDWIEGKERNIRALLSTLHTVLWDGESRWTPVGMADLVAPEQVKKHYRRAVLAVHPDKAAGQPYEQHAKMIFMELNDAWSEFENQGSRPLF
- test-description: biochemical
- Set-up: Thermal shift assay (DSF, SYPRO Orange), 2 uM kinase domain, mean delta Tm of triplicates versus DMSO
- condition-notes: read-out: GAK
This listing pairs compounds with measured ΔTm at 12.5 µM.
Record the result as a number with its unit.

Recorded results for 5 compounds are shown here.
>  <compound>
Cn1cc(-c2[nH]c3cc(NC(=O)[C@H](N)C4CCCCC4)cc4c3c2C=NNC4=O)cn1 [PF-00477736]

>  <ΔTm at 12.5 µM>
9.49 °C

$$$$
>  <compound>
CCc1cncnc1N1CCN(Cc2nc3ccc(C(F)(F)F)cc3[nH]2)CC1 [PF-04708671]

>  <ΔTm at 12.5 µM>
-0.243 °C

$$$$
>  <compound>
CS(=O)(=O)CCNCc1ccc(-c2ccc3ncnc(Nc4ccc(OCc5cccc(F)c5)c(Cl)c4)c3c2)o1 [Lapatinib]

>  <ΔTm at 12.5 µM>
1.67 °C

$$$$
>  <compound>
CC(=O)Nc1cccc(-n2c(=O)n(C3CC3)c(=O)c3c(Nc4ccc(I)cc4F)n(C)c(=O)c(C)c32)c1 [Trametinib]

>  <ΔTm at 12.5 µM>
-0.66 °C

$$$$
>  <compound>
CCN(CCO)CCCOc1ccc2c(Nc3cc(CC(=O)Nc4cccc(F)c4)[nH]n3)ncnc2c1 [AZD1152-HQPA]

>  <ΔTm at 12.5 µM>
-0.54 °C

$$$$

Observed ΔTm at 12.5 µM on GAK (Homo sapiens) for Cn1cnc2c(F)c(Nc3ccc(Br)cc3F)c(C(=O)NOCCO)cc21 [MEK-162] , please.
-0.617 °C

Observed ΔTm at 12.5 µM on GAK (Homo sapiens) for Cc1ccc(C(=O)Nc2ccc(CN3CCN(C)CC3)c(C(F)(F)F)c2)cc1C#Cc1cnc2cccnn12 [Ponatinib] , please.
13 °C

Observed ΔTm at 12.5 µM on GAK (Homo sapiens) for COc1cc(Nc2c(C#N)cnc3cc(OCCCN4CCN(C)CC4)c(OC)cc23)c(Cl)cc1Cl [Bosutinib] , please.
9.42 °C
